experiment summary: NIH:OVCAR-3 ovarian cancer cell cytotoxicity, dose response, PAX8 inhibitor project, plate reader, dry powder samples (AID 743044)
condition summary: NIH:OVCAR-3 ovarian cancer cell viability; at 35 µM, stronger effect = lower value unless noted
Measured potencies and affinities stand elsewhere. Results filed as inconclusive are left out. The source made the active and inactive calls. The rule behind the calls is not given here.
quantity kind: max activity

Param item = C[C@@H]1CN([C@@H](C)CO)C(=O)c2ccccc2-c2ccccc2CO[C@@H]1CN(C)Cc1ccc2c(c1)OCCN2C ; retrieve measured max activity. 3.55% (inactive)

Recorded max activity of COc1ccccc1C#Cc1ccc2c(c1)O[C@H](CN(C)Cc1cccnc1)[C@H](C)CN([C@H](C)CO)S2(=O)=O , please. -36.9% (inactive)

---

experiment summary: basal HepG2 mitochondrial membrane potential changes, profiling panel, cell-based, JC-1 fluorescence, 24 h, 100 nL compound (AID 1167)
condition summary: higher = more signal
Consider the following compounds; for each one, report its z-score.
Keep it simple and answer with nothing but the number.

# query: z-score of entry CC(C)(C)OC(=O)CC[C@@]12N=C(c3ccc(OCCCO)cc3)O[C@@H]1c1ccccc1N(Cc1ccccc1)C2=O 0.624

Which z-score value is on record for COc1ccc(C#Cc2ccc3c(c2)[C@]2(C(=O)N3)[C@H](c3ccc(O)cc3)N3[C@H](c4ccccc4)[C@H](c4ccccc4)OC(=O)[C@H]3[C@@H]2C(N)=O)cc1 ? -2.81

Quick one: z-score of COCCCNC(=O)[C@@]1(C)c2ccccc2C(=O)N(Cc2cc(F)cc(C(F)(F)F)c2)[C@H]1c1ccc(CO)cc1 ? 1.32

May I ask what z-score has been recorded for C=C(C1=CCN(S(=O)(=O)c2ccc(C)cc2)C1)[C@@H](OC(C)=O)[C@@H]1CCCN1S(=O)(=O)c1ccccc1[N+](=O)[O-] ? 1.04

Need z-score of C=C(C(=O)CC[C@H](OC(C)=O)c1ccc(CO)o1)C(C)C , thanks. 0.672

Record request: z-score value, item COCCOC(=O)N1C(=O)[C@@]2(c3cc(C#CCCO)ccc31)[C@H](c1ccccc1OCCO)N1[C@H](c3ccccc3)[C@H](c3ccccc3)OC(=O)[C@H]1[C@@H]2C(=O)NC[C@H](O)c1ccccc1 0.278

Can you share its z-score? I mean this compound: COCCCNC(=O)[C@@]1(Cc2ccccc2)N=C(c2ccc(OCCCO)cc2)O[C@H]1c1ccccc1N=[N+]=[N-] 1.12

---

Test system: wheat germ agglutinin (Triticum aestivum), Alexa647-labelled
experiment summary: wheat germ agglutinin binders on compound microarrays, profiling panel, artefact control for SMM control-protein annotation, biochemical, small-molecule microarray, 635/667 nm fluorescence (AID 1140);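 note: score merges 667 nm feature emission with signal to noise over triplicate slides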
condition summary: WGA-A647 binding, 635 nm fluorescence, higher = more signal
quantity kind: composite z-score
// return just the number, without any unit appended

API: value(readout= composite z-score, system= wheat germ agglutinin (Triticum aestivum), Alexa647-labelled, query= O=c1n(-c2ccccc2)c(=O)n2n1CC(COc1ccccc1)=C1[C@@H](CCc3ccccc3)OB(O)C[C@@H]12 ) 0.576

Could you share what composite z-score was measured for COc1ccc(C#Cc2ccc3c(c2)[C@]2(C(=O)N3)[C@H](c3ccc(O)cc3)N3[C@H](c4ccccc4)[C@H](c4ccccc4)OC(=O)[C@H]3[C@@H]2C(N)=O)cc1 , tested on wheat germ agglutinin (Triticum aestivum), Alexa647-labelled? -0.0907

GET /values?readout=composite z-score&system=wheat germ agglutinin (Triticum aestivum), Alexa647-labelled&item= CCCCC(=C=CC[C@H](O)c1cccc(OCCO)c1)CCO -0.602

Item: C#CCOc1ccc(C[C@H]2C(=O)O[C@H](Cc3ccccc3)[C@H](/C=C/C3CC3)N2CC#C)cc1 Test system: wheat germ agglutinin (Triticum aestivum), Alexa647-labelled Read-out: composite z-score Value: ? -0.311

Param readout= composite z-score; system= wheat germ agglutinin (Triticum aestivum), Alexa647-labelled; entry= CC(C)C(CO)N1C(=O)[C@@H]2C3C(=O)OCCC/C=C\[C@H]3OC23C=CCN(C(C)C)C(=O)[C@@H]13 (stereo not given in full) ; returns value. -1.14

Requested read-out composite z-score, target or system wheat germ agglutinin (Triticum aestivum), Alexa647-labelled, entry COC(=O)C1=CC(c2ccc(CO)cc2)=CC(c2cccs2)N(C)C=C1C(=O)OC (stereo not given) 0.84

Find composite z-score (wheat germ agglutinin (Triticum aestivum), Alexa647-labelled) for the entry COC(=O)C1=CC(c2ccc(CO)cc2)=CC(C2CC2)N(C)C=C1C(=O)OC (stereo not given) 1.28

What measured composite z-score is associated with C=C(/C(=C/C[C@H](OC(C)=O)c1cccc(OCCO)c1)c1cc(C(=O)OC)ccc1OC)C(C)C on wheat germ agglutinin (Triticum aestivum), Alexa647-labelled? -0.907

Please tell me: composite z-score of CC(C)(C)OC(=O)CC[C@]1(C(=O)NCc2ccccc2)N=C(c2ccc(OCCCO)cc2)O[C@H]1c1ccccc1N=[N+]=[N-] , system wheat germ agglutinin (Triticum aestivum), Alexa647-labelled? 1.42

Report composite z-score for O=C1O[C@H](c2ccccc2)[C@H](c2ccccc2)N2[C@H]1[C@@H](C(=O)NC[C@H](O)c1ccccc1)[C@]1(C(=O)Nc3ccc(C#CC4(O)CCCCCC4)cc31)[C@H]2c1ccc(O)cc1 tested on wheat germ agglutinin (Triticum aestivum), Alexa647-labelled. 0.588

Form field - read-out: composite z-score; system: wheat germ agglutinin (Triticum aestivum), Alexa647-labelled; submitted item: CC(C)NC(=O)[C@@H]1c2ccccc2C(=O)N(Cc2cc(F)cc(C(F)(F)F)c2)[C@H]1c1ccc(CO)cc1 -1.21

What composite z-score appears in the records for this compound with wheat germ agglutinin (Triticum aestivum), Alexa647-labelled? C=C(COC)C(=O)CC[C@@H](OC(=O)c1ccccc1-c1ccccc1C(=O)O)c1cccc(OCCO)c1 -0.478

Request: composite z-score, test system wheat germ agglutinin (Triticum aestivum), Alexa647-labelled, entry O=C1O[C@H](c2ccccc2)[C@H](c2ccccc2)N2[C@H]1[C@@H](C(=O)Nc1nc3ccccc3s1)[C@]1(C(=O)Nc3ccc(C#CCCO)cc31)[C@H]2c1ccccc1OCCO 1.3

Kindly state the measured composite z-score obtained for COc1ccc([Si](C)(C)[C@H]2[C@H](CC(=O)N(CCO)Cc3ccccc3)O[C@@]3(C(=O)N(Cc4ccc(N5CCC5=O)cc4)c4ccccc43)[C@@H]2C)cc1 with wheat germ agglutinin (Triticum aestivum), Alexa647-labelled. 0.429

Could you share what composite z-score was measured for COC(=O)c1c(CC[C@@H](CO)NC(=O)Nc2ccc(OC)cc2)oc(C(=O)Cc2ccccc2)c1C(=O)OC , tested on wheat germ agglutinin (Triticum aestivum), Alexa647-labelled? 0.371
